Molecular target: CD28 (Homo sapiens, UniProt P10747)
Experiment: Jurkat/IL2 + K562/OKT3/PD-L1 reporter assay
Format: cell-based
Set-up: host or cells: Jurkat cells expressing an IL-2-luciferase reporter
Settings: Table E8; K562/OKT3/PD-L1 aAPC; 50 nM
measured-property: Relative Luciferase Units (RLU), CD80-Fe Cone 50 nM

INSERT INTO measurements (molecule, assay_result) VALUES
  ('A26E/E35D/M47L/A71G (protein) VIHVTKEVKEVATLSCGHNVSVEELEQTRIYWQKDKKMVLTMMSGDLNIWPEYKNRTIFDITNNLSIVILGLRPSDEGTYECVVLKYEKDAFKREHLAEVTLSVKAD', 1748),
  ('E35D/D46E/M47V/N63D/L85Q (protein, UniProt P33681 35-288, looked up, variant E35D D46E M47V N63D L85Q) T-lymphocyte activation …: VIHVTKEVKEVATLSCGHNVSVEELAQTRIYWQKDKKMVLTMMSGEVNIWPEYKNRTIFDITDNLSIVILALRPSDEGTYECVVQKYEKDAFKREHLAEVTLSVKADFPTPSISDFEIPTSNIRRIICSTSGGFPEPHLSWLENGEELNAINTTVSQDPETELYAVSSKLDFNMTTNHSFMCLIKYGHLRVNQTFNWNTTKQEHFPDNLLPSWAITLISVNGIFVICCLTYCFAPRCRERRRNERLRRESVRPV', 1381),
  ('E35D/M38T/M43V/M47V/N48R/L85Q (protein, UniProt P33681 35-288, looked up, variant E35D M38T M43V M47V N48R L85Q, Fc fusion) T-lymphocyte activation …: VIHVTKEVKEVATLSCGHNVSVEELAQTRIYWQKDKKTVLTMVSGDVRIWPEYKNRTIFDITNNLSIVILALRPSDEGTYECVVQKYEKDAFKREHLAEVTLSVKADFPTPSISDFEIPTSNIRRIICSTSGGFPEPHLSWLENGEELNAINTTVSQDPETELYAVSSKLDFNMTTNHSFMCLIKYGHLRVNQTFNWNTTKQEHFPDNLLPSWAITLISVNGIFVICCLTYCFAPRCRERRRNERLRRESVRPV', 680);

Just for reference, patent US20220177587A1 is where these values come from.
